- assay.system: human CYP1A2 (Homo sapiens, UniProt P05177)
- Sequence (P05177 whole entry): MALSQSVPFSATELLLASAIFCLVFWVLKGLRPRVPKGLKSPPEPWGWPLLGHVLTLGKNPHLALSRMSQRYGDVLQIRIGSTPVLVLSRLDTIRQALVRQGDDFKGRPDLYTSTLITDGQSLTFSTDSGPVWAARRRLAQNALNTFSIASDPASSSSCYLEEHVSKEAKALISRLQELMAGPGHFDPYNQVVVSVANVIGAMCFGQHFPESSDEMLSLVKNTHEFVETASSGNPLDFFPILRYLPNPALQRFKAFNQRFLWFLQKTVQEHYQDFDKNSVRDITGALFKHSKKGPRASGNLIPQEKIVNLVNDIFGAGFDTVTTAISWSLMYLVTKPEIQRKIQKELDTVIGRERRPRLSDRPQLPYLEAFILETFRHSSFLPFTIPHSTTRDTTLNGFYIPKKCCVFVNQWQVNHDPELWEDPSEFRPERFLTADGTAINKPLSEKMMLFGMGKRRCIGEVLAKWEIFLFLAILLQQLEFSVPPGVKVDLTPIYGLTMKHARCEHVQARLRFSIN
- experiment.notes: biochemical
- reported.conditions: CYP1A2 AC50 (half-maximal activity concentration)
readout.label: AC50 (µM)
Report the value in µM with no unit label.

In the examples that follow, each entry is paired with its recorded AC50.
CC(C)OC(=O)COc1ccc(Cl)cc1Cl = 13.6
Oc1c(Br)cc(Br)cc1Br = 51.7
CCNc1nc(NC(C)(C)C)nc(SC)n1 = 7.74
CNC(=O)Oc1ccccc1C(C)C = 35.6
O=C(C(=O)c1ccccc1)c1ccccc1 = 12.1
CC(C)N(C(=O)COc1nnc(C(F)(F)F)s1)c1ccc(F)cc1 = 37
CCNc1nc(NC(C)C)nc(SC)n1 = 9.81
O=C(NC(=O)c1c(F)cccc1F)Nc1cc(Cl)c(F)c(Cl)c1F = 32.5

Recorded AC50 (molecule O=C1C(Cl)C(CCl)CN1c1cccc(C(F)(F)F)c1 (stereo not drawn) ): 1.04

Recorded AC50 (molecule CCOP(=O)(Sc1ccccc1)Sc1ccccc1 ): 13

Recorded AC50 (molecule O=C(OCCOCCOC(=O)c1ccccc1)c1ccccc1 [Diethylene glycol dibenzoate] ): 8.29

Recorded AC50 (molecule COC(=O)C(C)Oc1ccc(Oc2ccc(Cl)cc2Cl)cc1 (stereo not drawn) ): 38.5

Recorded AC50 (molecule O=[N+]([O-])c1cccc2cccnc12 ): 33.9

Recorded AC50 (molecule [O-][n+]1ccccc1SSc1cccc[n+]1[O-] ): 3.2

Recorded AC50 (molecule Cc1ccc(C(=O)c2ccccc2)cc1 ): 34.3

Recorded AC50 (molecule c1ccc(-c2ccccc2-c2ccccc2)cc1 ): 2.91

Recorded AC50 (molecule CCC(C)c1ccccc1O (stereo not drawn) ): 38.5

====

- assay.system: human CYP2C19 (Homo sapiens, UniProt P33261)
- Sequence (P33261 whole entry): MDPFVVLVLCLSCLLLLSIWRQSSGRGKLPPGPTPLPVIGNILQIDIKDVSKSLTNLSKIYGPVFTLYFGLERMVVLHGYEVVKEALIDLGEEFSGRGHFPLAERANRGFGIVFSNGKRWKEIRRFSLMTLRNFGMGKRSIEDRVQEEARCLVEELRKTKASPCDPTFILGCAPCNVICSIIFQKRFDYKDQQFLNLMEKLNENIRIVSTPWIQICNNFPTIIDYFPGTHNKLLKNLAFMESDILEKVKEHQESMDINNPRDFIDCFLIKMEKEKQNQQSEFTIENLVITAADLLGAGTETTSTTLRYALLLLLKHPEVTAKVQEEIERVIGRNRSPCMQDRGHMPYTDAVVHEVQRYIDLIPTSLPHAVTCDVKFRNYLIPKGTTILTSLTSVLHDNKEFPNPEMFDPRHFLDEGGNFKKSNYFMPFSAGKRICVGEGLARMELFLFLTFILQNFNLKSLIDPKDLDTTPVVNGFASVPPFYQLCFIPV
- experiment.notes: biochemical
- reported.conditions: CYP2C19 IC50
pIC50: −log10 of the molar value. Where a name gives a salt, the structure may show the parent alone.
Lab note: compare pIC50 against 5. Equal or greater, write fulfilled. Smaller, write not fulfilled.

c1ccc2sc(SN(C3CCCCC3)C3CCCCC3)nc2c1 = not fulfilled
Cc1cccc(Cc2c[nH]cn2)c1C [Detomidine hydrochloride] = fulfilled
Nc1ccc2c3c(cccc13)-c1ccccc1-2 [3-Aminofluoranthene] = not fulfilled
N#Cc1c2ccccc2cc2ccccc12 [9-Cyanoanthracene] = not fulfilled
CCN(CCCc1ccccc1)CCCc1ccccc1 [Alverine citrate] = fulfilled

q: Evaluate c1ccc2cc3ccccc3cc2c1 [Anthracene] : pIC50 at minimum 5?
a: not fulfilled

q: Evaluate CC(C)Nc1ccc(Nc2ccccc2)cc1 [N-Isopropyl-N'-phenyl-p-phenylenediamine] : pIC50 at minimum 5?
a: fulfilled

q: Evaluate C[C@@H](O[C@H]1OCCN(Cc2n[nH]c(=O)[nH]2)[C@H]1c1ccc(F)cc1)c1cc(C(F)(F)F)cc(C(F)(F)F)c1 [Aprepitant] : pIC50 at minimum 5?
a: not fulfilled

====

human CYP2C19 (Homo sapiens, UniProt P33261): recorded AC50 for assorted molecules
Report the value in µM with no unit label.

Nc1ccc([N+](=O)[O-])c(C(F)(F)F)c1 [3-Trifluoromethyl-4-nitroanilide] = 12.9
CCCCC/C(=C\c1ccccc1)CO = 1.66
CCC(=O)Oc1ccc2c(c1)CC[C@@H]1[C@@H]2CC[C@@]2(C)[C@H]1C[C@@H](OC(=O)CC)[C@@H]2OC(=O)CC [Estriol tripropionate] = 29.9
O=C(C=Cc1ccccc1)OCCc1ccccc1 [2-Phenylethyl 3-phenylprop-2-enoate] = 20.8
COc1ccc(C(=O)c2ccc(O)cc2)c(OC)c1 [2,4-Dimethoxy-4'-hydroxy benzophenone] = 6.52
O=C(O)c1cc(Br)c(O)c(Br)c1 [3,5-Dibromo-4-hydroxybenzoic acid] = 23.8
Nc1ccc(Cl)cc1C(=O)c1ccccc1F = 11.9

Turning now to a further molecule:
Entry CCC(CC)Nc1ccc(C)c(C)c1 , human CYP2C19 (Homo sapiens, UniProt P33261) data, AC50 value: 10.7

====

- assay.system: CYP3A4 (Homo sapiens, UniProt P08684)
- Sequence (P08684 whole entry): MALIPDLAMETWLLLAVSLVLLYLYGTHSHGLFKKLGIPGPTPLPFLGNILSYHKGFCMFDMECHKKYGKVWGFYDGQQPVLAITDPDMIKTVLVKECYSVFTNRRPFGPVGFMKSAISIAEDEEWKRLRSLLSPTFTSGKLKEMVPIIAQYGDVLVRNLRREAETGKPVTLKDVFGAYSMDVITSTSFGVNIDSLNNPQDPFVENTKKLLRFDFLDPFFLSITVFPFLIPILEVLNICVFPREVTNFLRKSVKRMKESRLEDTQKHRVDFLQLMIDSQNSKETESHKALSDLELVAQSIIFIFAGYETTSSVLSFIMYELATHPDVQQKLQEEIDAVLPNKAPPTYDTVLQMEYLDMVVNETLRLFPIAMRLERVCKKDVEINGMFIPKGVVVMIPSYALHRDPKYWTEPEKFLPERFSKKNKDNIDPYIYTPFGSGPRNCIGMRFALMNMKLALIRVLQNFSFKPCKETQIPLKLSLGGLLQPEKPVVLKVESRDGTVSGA
- experiment.notes: biochemical
- reported.conditions: CYP3A4 AC50 (half-maximal activity concentration)
Counter-ions that a name gives are not always drawn.
Lab note: anything with AC50 below 20 µM is marked yes; values at 20 µM or higher are marked no.

Solved entries (count: 8):
CN1CCC(=C2c3ccccc3Sc3ccccc32)CC1 [Pimethixene maleate] = yes
CC(=O)c1ccc2ccccc2c1 = no
CN(C)C(=O)C(c1ccccc1)c1ccccc1 = no
c1ccc(CSCc2ccccc2)cc1 [Benzyl sulfide] = yes
Cc1cccc2sc(N)nc12 = yes
Cc1ccc(C(=O)c2ccccc2)cc1 = yes
CC(=O)OCC(=O)[C@H]1CC[C@H]2[C@@H]3CCC4=CC(=O)CC[C@]4(C)[C@H]3CC[C@]12C [Deoxycorticosterone acetate] = yes
C[C@]12C=CC(=O)C=C1CC[C@@H]1[C@@H]2CC[C@@]2(C)[C@H]1CC[C@]2(C)O = yes

Below: the item to evaluate.
q: Item CCOC(=O)C(C)Oc1ccc(Oc2nc3ccc(Cl)cc3o2)cc1 (stereo not drawn) : AC50 beneath 20 µM, strictly?
a: no

====

human CYP2C19 (Homo sapiens): recorded CYP2C19 AC50 (half-maximal activity concentration) for assorted compounds

In the examples that follow, each entry is paired with its recorded CYP2C19 AC50 (half-maximal activity concentration).
C[C@]12C=CC(=O)C=C1CC[C@@H]1[C@@H]2CC[C@@]2(C)[C@H]1CC[C@]2(C)O [Methandrostenolone] = Inactive
C=C(C)C(=O)OCC[N+](C)(C)C.[Cl-] = Inactive
CCCCCCCCCCCCN1CCCC1=O [1-Dodecyl-2-pyrrolidinone] = Inconclusive inhibitor
CCC1(c2ccccc2)CCC(=O)NC1=O (stereo not drawn) [Glutethimide] = Inconclusive inhibitor
Oc1c(Br)cc(Br)cc1Br [2,4,6-Tribromophenol] = Inconclusive inhibitor
C=Cc1ccc(S(=O)(=O)[O-])cc1.[Na+] [Sodium 4-vinylbenzenesulfonate] = Inactive

Entry O=C1NCN(c2ccccc2)C12CCN(CCCOc1ccc(F)cc1)CC2 [AMI-193] , human CYP2C19 (Homo sapiens) data, CYP2C19 AC50 (half-maximal activity concentration) value: Inconclusive inhibitor

Entry Cc1cc(C)nc(O)n1.O=C(Nc1ccc([N+](=O)[O-])cc1)Nc1ccc([N+](=O)[O-])cc1 [Nicarbazin] , human CYP2C19 (Homo sapiens) data, CYP2C19 AC50 (half-maximal activity concentration) value: Inconclusive inhibitor

Entry CC(C)N1C(=O)c2ccccc2C1=O [N-Isopropylphthalimide] , human CYP2C19 (Homo sapiens) data, CYP2C19 AC50 (half-maximal activity concentration) value: Inactive

Entry Cc1ccc(S(=O)(=O)NCl)cc1 [Chloramine-T trihydrate] , human CYP2C19 (Homo sapiens) data, CYP2C19 AC50 (half-maximal activity concentration) value: Inconclusive inhibitor

Entry O=C(O)c1ccc(Cl)c(Cl)c1 [3,4-Dichlorobenzoic acid] , human CYP2C19 (Homo sapiens) data, CYP2C19 AC50 (half-maximal activity concentration) value: Inconclusive inhibitor

Entry O=C(O)C(F)(F)C(F)(F)C(F)(F)C(F)(F)C(F)(F)F [PFHxA] , human CYP2C19 (Homo sapiens) data, CYP2C19 AC50 (half-maximal activity concentration) value: Inactive

Entry Brc1nc2ccccc2s1 [2-Bromobenzothiazole] , human CYP2C19 (Homo sapiens) data, CYP2C19 AC50 (half-maximal activity concentration) value: Inactive

Entry CC(=O)O[C@@H]1C[C@H]2[C@@H]3CCc4cc(OC(=O)c5ccccc5)ccc4[C@H]3CC[C@]2(C)[C@H]1OC(C)=O [Estriol benzoate diacetate] , human CYP2C19 (Homo sapiens) data, CYP2C19 AC50 (half-maximal activity concentration) value: Inactive

Entry CCNc1nc(NCC)nc(SC)n1 [Simetryn] , human CYP2C19 (Homo sapiens) data, CYP2C19 AC50 (half-maximal activity concentration) value: Inconclusive inhibitor

Entry CCOC(=O)CCCCCCCCC(=O)OCC [Diethyl decanedioate] , human CYP2C19 (Homo sapiens) data, CYP2C19 AC50 (half-maximal activity concentration) value: Inconclusive inhibitor

====

- assay.system: CYP3A4 (Homo sapiens, UniProt P08684)
Recorded CYP3A4 Efficacy (in parenthesis) for the following compounds

CC1(C)CCC(Cc2ccc(Cl)cc2)C1(O)Cn1cncn1 (centres unmarked) = 0.06 ± 0.04 (-85 ± 6) %
CCCCCCCCCCCCCCCCn1cc[n+](C)c1.[Cl-] [1-Hexadecyl-3-methylimidazolium chloride] = 63.62 ± 15.46 (-70 ± 19) %
Brc1ccc(Oc2ccc(Br)cc2Br)c(Br)c1 = 13.01 ± 6.86 (68 ± 8) %

Entry COC(=O)N(OC)c1ccccc1COc1ccn(-c2ccc(Cl)cc2)n1 , CYP3A4 (Homo sapiens, UniProt P08684) data, CYP3A4 Efficacy (in parenthesis) value: 1.31 ± 0.09 (52 ± 7) %

Entry CC(C)CC(N(C)C)C1(c2ccc(Cl)cc2)CCC1.Cl (centres unmarked) [Sibutramine hydrochloride] , CYP3A4 (Homo sapiens, UniProt P08684) data, CYP3A4 Efficacy (in parenthesis) value: 0.94 ± 0.06 (-73 ± 3) %

Entry COP(=S)(OC)Oc1ccc(S(=O)(=O)N(C)C)cc1 , CYP3A4 (Homo sapiens, UniProt P08684) data, CYP3A4 Efficacy (in parenthesis) value: 9.06 ± 1.9 (-86 ± 7) %

Entry CCOP(=S)(OCC)SCn1c(=O)oc2cc(Cl)ccc21 , CYP3A4 (Homo sapiens, UniProt P08684) data, CYP3A4 Efficacy (in parenthesis) value: 0.3 ± 0.07 (-85 ± 5) %

Entry C=CCc1cc(S(=O)(=O)c2ccc(O)c(CC=C)c2)ccc1O , CYP3A4 (Homo sapiens, UniProt P08684) data, CYP3A4 Efficacy (in parenthesis) value: 20.01 ± 7.14 (-71 ± 11) %

Entry Oc1ccc2ccc3cccc4ccc1c2c34 [1-Hydroxypyrene] , CYP3A4 (Homo sapiens, UniProt P08684) data, CYP3A4 Efficacy (in parenthesis) value: 27.72 ± 10.43 (-84 ± 7) %

Entry N#Cc1c(Cl)c(Cl)c(Cl)c(C#N)c1Cl , CYP3A4 (Homo sapiens, UniProt P08684) data, CYP3A4 Efficacy (in parenthesis) value: 1.11 ± 0.13 (-78 ± 2) %

Entry CCOP(=S)(OCC)Oc1ccc(Cl)cc1Cl , CYP3A4 (Homo sapiens, UniProt P08684) data, CYP3A4 Efficacy (in parenthesis) value: 2.22 ± 0.62 (-82 ± 5) %
